Source of measurements: PubChem BioAssay (NCI)

system: DU-145 prostate; experiment: NCI-60 one-dose screen, 48 h (100 = growth as untreated, 0 = no growth, -100 = all killed); conditions: 10 µM unless noted
Compounds without any hit were thinned out: in the full panel of roughly 83,000, 20% have a hit.
growth for assorted compounds

| SMILES | growth / % |
| --- | --- |
| COc1cc(/C=C/c2cc(O)c(C(C)=O)c(O)c2)cc2c1O[C@]1(C)CC[C@@H](O)C(C)(C)[C@H]1C2 | 74.5 |
| O=C(O)c1ccc(-c2nn(-c3ccc(C(F)(F)F)cc3)cc2CNc2ccc(Oc3ccccc3)cc2)cc1 | 95.5 |
| Cc1ccc(-n2c3c(c(-c4ccccc4)c2-c2ccccc2)C2=NCCN2C=N3)cc1 | 95 |
| CCC(=O)Oc1ccc(/C(=C(\C)c2ccccc2)c2ccc(OCCN3CCCCC3)cc2)cc1 | 91.5 |
| CCOC(=O)CSc1nc2ccccc2c(=O)n1Cc1ccc(S(N)(=O)=O)cc1 | 113 |
| Cc1cnc(C(=O)Nc2nc3ccc(S(=O)(=O)Nc4ccc(C(C)(C)C)cc4)cc3[nH]2)cn1 | 12.4 |
| C/C(=N\NC(=O)CSc1nc2ccccc2c(=O)n1CCc1ccc(S(N)(=O)=O)cc1)c1ccccn1 | 44.1 |
| Brc1ccc2[nH]cc(-c3cncn3CCc3ccccc3)c2c1 | 68.1 |
| COc1cc2c(=O)n(CCCN(C)C)c3c4cc5c(cc4ccc3c2cc1OC)OCO5 | 63.5 |

* * *

test system: HOP-62 NSCLC; test: NCI-60 one-dose screen, 48 h (100 = growth as untreated, 0 = no growth, -100 = all killed); settings: 10 µM unless noted
This is part of a sample that, as a whole, favours compounds with a hit. Of some 83,000 tested, about 20% had one in any assay. Calls of active or inactive are those of the source. How the source made its calls: active means growth percent below 10; inactive means the rest.
growth for assorted compounds

| COMPOUND | growth |
| --- | --- |
| CC(=O)O[C@@H]1C2CCC3C(CC[C@@]4(C)C3CC[C@@H]4C(C)N(C)C)[C@@]2(C)CC[C@@H]1NC(=O)C=C(C)C (some centres undefined) | -26.1% (active) |
| CCCNC(=O)Oc1ccc(/C(=C(\C)c2ccccc2)c2ccc(OCCCN(C)C)cc2)cc1 | 78.3% (inactive) |
| Cc1ccc(NC(C(=O)c2ccccc2)c2ccccc2)cc1 (centres undefined) | 80.2% (inactive) |
| Cc1cc2nc3c4ccc(Br)cc4n(CCN(C)C)c3nc2cc1C | 16% (inactive) |

* * *

system: NCI-H460 lung; test: NCI-60 one-dose screen, 48 h (100 = growth as untreated, 0 = no growth, -100 = all killed); conditions: 10 µM unless noted
About 83,000 compounds went through this panel and 20% of them were active in at least one assay; those are over-represented in the sample as a whole.
growth for assorted compounds
PROPERTY_LABEL: growth (%)

| COMPOUND | PROPERTY_LABEL | DATA_VALUE |
| --- | --- | --- |
| Cc1nn(-c2ccccc2)c(Cl)c1/C=N\N=c1/sc2ccccc2n1C | growth | 107 |
| Cc1ccc(NS(=O)(=O)c2ccc(-c3cnc(C4CC4)o3)cc2)cc1C(F)(F)F | growth | 55.8 |
| COc1ccccc1NC(=O)C1CC(c2ccc(F)cc2)=NO1 (centres undefined) | growth | 98.5 |
| CCOC(=O)c1cc(C(=O)c2ccc(OC)c(OC)c2)n2ccc(/C=C/c3cc[n+](CC(=O)c4ccc(OC)c(OC)c4)cc3)cc12 | growth | 98.6 |

* * *

test system: OVCAR-8 ovarian; assay: NCI-60 one-dose screen, 48 h (100 = growth as untreated, 0 = no growth, -100 = all killed); conditions: 10 µM unless noted
The panel holds about 83,000 compounds, 20% with a hit somewhere; the sample as a whole holds those more often.
The label is MET for growth below 50% and NOT MET for growth equal to or exceeding 50%.

| COMPOUND | ANSWER_LABEL |
| --- | --- |
| COc1cc(/C=N/NC(=O)c2cnn3c2NC(c2ccccc2)C3)ccc1Oc1ccccc1 (stereo unspecified) | MET |
| COc1cc2cc(Oc3cccc(NC(=O)Nc4cc(C(F)(F)F)cc(C(F)(F)F)c4)c3)c(C)nc2cc1OC | MET |
| O=S(=O)(NCCNc1nccc(-c2c(-c3cccc(O)c3)nc3occn23)n1)c1ccc(Cl)cc1 | NOT MET |
| O=C1c2ccccc2CCC12OC2c1cn(-c2ccccc2)nc1-c1ccc(Cl)cc1 (stereo unspecified) | NOT MET |
| Cn1ccnc1C(=O)/C=C/c1ccc(CC(=O)Nc2ccc(F)cc2)cc1 | MET |
| Nc1n[nH]c2cccc(C#Cc3cccc(C(=O)Nc4cc(CN5CCOCC5)cc(C(F)(F)F)c4)c3)c12 | MET |
| CCCCCN1C=C/C(=C\C(=O)N(C)c2ccc(Oc3ccccc3)cc2)c2ccccc21 | NOT MET |
| C=C1C(=O)O[C@H]2[C@H]1CC/C(CNC(=O)c1cccc3ccccc13)=C\CC[C@@]1(C)O[C@@H]21 | MET |
| CC1(C)CC(=O)C2=C(C1)N(c1ccc(F)cc1F)C(N)=C(C#N)C2c1cc(Br)ccc1F (stereo unspecified) | NOT MET |
| CCOC(=O)C1=C(C)NC(SCc2cc(=O)oc3ccc(F)cc23)=N[C@@H]1c1cccc2ccccc12 | NOT MET |

* * *

test system: RPMI-8226 leukemia; test: NCI-60 one-dose screen, 48 h; conditions: 10 µM unless noted
About 83,000 compounds went through this panel and 20% of them were active in at least one assay; those are over-represented in the sample as a whole. The source made the active and inactive calls. How the source made its calls: active means growth percent below 10; inactive means the rest.
Outcomes: true (1) = active, false (0) = inactive

| MOLECULE | ANSWER_LABEL |
| --- | --- |
| CCCCOc1ccc(/C(C)=N/Nc2cc(C)nc3ccc(Br)cc23)cc1 | false (0) |
| CC[C@]12C=CCN3CC[C@@]4(c5cc(NC(=O)CCC(=O)O[C@H]6CC[C@H]7[C@@H]8CCC9=CC(=O)CC[C@@H]9[C@H]8CC[C@]67C)c(OC)cc5N(C)[C@H]4[C@@](O)(C(=O)OC)[C@@H]1OC(C)=O)[C@@H]32 | false (0) |
| CCCCCCCCCCCCCCCC[N+]1(C)CCN(SN2CC[N+](C)(CCCCCCCCCCCCCCCC)CC2)CC1 | false (0) |
| CCOC(=O)c1ccc2c(c1)ncn2-c1ccc(NC(=O)Nc2cccc(C)c2)cc1 | false (0) |
| CCNC(=O)Oc1ccc(/C(=C(\C)c2ccccc2)c2ccc(OCCCN(C)C)cc2)cc1 | false (0) |
| OC(c1ccc(F)c(C(F)(F)F)c1)c1cnccc1NC1CCCCC1 (centres undefined) | false (0) |
| C[C@H]1[C@H](C)CC[C@]2(C(=O)Nc3ccc4ncccc4c3)CC[C@]3(C)C(=CC[C@@H]4[C@@]5(C)CCCNC(C)(C)[C@@H]5CC[C@]43C)[C@H]12 | true (1) |
| Cc1ccc(NS(=O)(=O)c2ccc(-c3cnc(C4CC4)o3)cc2)cc1C(F)(F)F | false (0) |
| O=C1c2ccccc2C(=O)c2c([N+](=O)[O-])ccc(Cl)c21 | false (0) |
| CCCCNC(=O)Oc1ccc(/C(=C(\C)c2ccccc2)c2ccc(OCCN3CCCCC3)cc2)cc1 | false (0) |
| CC(C)N1C(=O)S/C(=C2/SC(=O)N(C(C)C)C2=O)C1=O | false (0) |
| NC(=O)CSSCC(N)=O | false (0) |
| Cc1ccc(-c2csc(NC(=O)CSc3nc(-c4ccccc4)cc(=O)[nH]3)n2)cc1 | false (0) |
| CC(=O)N1N=C(c2ccc(-n3ccc(C(F)(F)F)n3)c(F)c2)CC1c1ccc[nH]1 (centres undefined) | false (0) |
| COc1ccc(/C=C/c2nc(Nc3ccc(S(=O)(=O)Nc4nc(C)cc(C)n4)cc3)c3ccccc3n2)cc1 | false (0) |
| O=C1NN(C(=O)c2ccccc2)C(c2ccc(Cl)c(Cl)c2)=C/C1=C\c1ccc([N+](=O)[O-])cc1 | false (0) |
| c1ccc(-c2c(-c3ccccc3)[n+](Cc3ccc4ccccc4c3)c(-c3cccc4ccccc34)n2Cc2ccc3ccccc3c2)cc1 | true (1) |
| O=C1CC(=O)OC(c2ccc([N+](=O)[O-])cc2)O1 | false (0) |
| COc1cc2oc(-c3cccc(C(=O)Nc4ccc(Br)cc4)c3)cc(=O)c2c(OC)c1OC | true (1) |

* * *

test system: DU-145 prostate; experiment: NCI-60 one-dose screen, 48 h (100 = growth as untreated, 0 = no growth, -100 = all killed); details: 10 µM unless noted
This is part of a sample that, as a whole, favours compounds with a hit. Of some 83,000 tested, about 20% had one in any assay.
PROPERTY_LABEL: growth (%)

| COMPOUND | MEASUREMENT_UNIT | DATA_VALUE |
| --- | --- | --- |
| Nc1c(S(=O)(=O)O)cc2c3c(cccc13)C(=O)OC2=O | % | 140 |
| N#C/C(=C\c1ccc(Cl)cc1)n1nnc2cc(F)c(F)cc21 | % | 14 |
| Cc1nc(N)nc(N[C@@H](C)c2nc3cccc(NCc4ccc(C(=O)NO)cc4)c3c(=O)n2-c2ccccc2)n1 | % | 86.9 |
| Cc1ccc(-c2nc3ccccn3c2/C=C2/C(=O)Nc3cc(Cl)ccc32)cc1 | % | 65.5 |
| CC(c1ccccc1)C(C(=O)c1ccccc1)c1ccccc1 (stereo unspecified) | % | 105 |
| C=C1C(=O)O[C@H]2[C@H]1CC/C(COC(=O)NCc1c[nH]c3ccc(Br)cc13)=C\CC[C@@]1(C)O[C@@H]21 | % | -88.6 |
